The values you see were collected from patent US9399646B2.

Exercise: state measured pIC50 for each of the compounds provided.
Test system: MCF-7 cells
Assay: Breast cancer cell viability assay (CellTiter-Glo, 5 days)
Type: cell-based
Conditions: Homo sapiens, MCF7, 120 h, 5 days' compound exposure
pIC50: −log10 of the molar value.

Example cases with answers are listed next.
structure_smiles=O=C(O)/C=C/c1ccc(/C(=C(\c2ccncc2Cl)C2CCC2)c2ccc3scnc3c2)cc1 result="≥ 7.00"
structure_smiles=CC/C(=C(/c1ccc(/C=C/C(=O)O)cc1)c1ccc2[nH]ncc2c1)c1ccc(N(C)c2ccccc2)cc1 result="< 7.00"
structure_smiles=CC/C(=C(/c1ccc(/C=C/C(=O)O)cc1)c1ccc2ncccc2c1)c1ccc(F)cc1 result="< 7.00"

Kindly review the next compound as well.
Task item: Fill in the blank: the reported pIC50 of "CC/C(=C(/c1ccc(/C=C/C(=O)O)cc1)c1ccc2[nH]ncc2c1)c1cccc(Oc2cccnc2)c1" is ____.
Reply: ≥ 7.00
